All values here come from patent US7557133B2.

# system_under_test: caspase-8 (Homo sapiens)
# Construct: p10 and p20 subunits (Thornberry, N. A. et al, Nature, 1992, 356, 768) were expressed in E. coli; made in house; host or cells: E. coli
# Sequence (Q14790 217-374 limits assumed, species assumed): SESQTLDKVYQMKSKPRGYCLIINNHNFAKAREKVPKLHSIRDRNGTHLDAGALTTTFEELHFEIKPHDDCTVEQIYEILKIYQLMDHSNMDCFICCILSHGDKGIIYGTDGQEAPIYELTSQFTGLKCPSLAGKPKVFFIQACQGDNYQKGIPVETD
# Sequence (Q14790 385-479 limits assumed, species assumed): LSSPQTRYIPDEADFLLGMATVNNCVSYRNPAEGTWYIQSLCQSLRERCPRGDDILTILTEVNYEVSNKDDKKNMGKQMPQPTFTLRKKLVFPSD
# test_name: Caspase-8 inhibitory effect (fluorescent substrate AcDEVD-AFC)
# Assay type: biochemical
# condition_parameters: pH 7.5; 25° C., 50 μM AcDEVD-AFC, 2.1 nM caspase-8; read-out: Caspase-8 Kobs/[I] (converted)
reported_property: kinact/KI (M⁻¹ s⁻¹)

Previously resolved entries follow.
Could you tell me which kinact/KI is on file for Cc1ccc2c(c1)cc(C1=NOC(C(=O)NC(CC(=O)O)C(=O)CF)(C(C)C)C1)n2C (centres unmarked) ?
30000

Report kinact/KI for CCC1(C(=O)NC(CC(=O)O)C(=O)CF)CC(c2cc3ccccc3s2)=NO1 (centres unmarked) please.
2000

Request the reported kinact/KI associated with CCC1(C(=O)N[C@@H](CC(=O)O)C(=O)COc2c(F)c(F)cc(F)c2F)CC(c2nccc3ccccc23)=NO1 (some centres unmarked)
8330

Requested read-out: kinact/KI. Entry: CCC1(C(=O)N[C@@H](CC(=O)O)C(=O)COc2c(F)c(F)cc(F)c2F)CC(c2ccc3ccccc3c2)=NO1 (some centres unmarked)
3000

1 = CCC1(C(=O)NC(CC(=O)O)C(=O)CF)CC(c2cc(C(C)=O)ccn2)=NO1 (centres unmarked)
2 = CC(C)[C@@]1(C(=O)N[C@@H](CC(=O)O)C(=O)CF)CC(c2nccc3ccccc23)=NO1
3 = CC(C)[C@@]1(C(=O)NC(CC(=O)O)C(=O)CF)CC(c2cc(C(C)(C)C)ccn2)=NO1 (some centres unmarked)
4 = CCC1(C(=O)N[C@@H](CC(=O)O)C(=O)COc2cccc[n+]2C)CC(c2ccccc2C(C)C)=NO1.O=S(=O)([O-])C(F)(F)F (some centres unmarked)
Sort these compounds on kinact/KI so the largest reading comes first. Order the labels as requested and list them.
2, 3, 1, 4
(2: 383000 M⁻¹ s⁻¹, 3: 3830 M⁻¹ s⁻¹, 1: 1070 M⁻¹ s⁻¹, 4: 517 M⁻¹ s⁻¹)

====

# System: Jurkat cell (ATCC TIB-152)
# test_name: Jurkat cell apoptosis by Fas antibody, WST-1 method
# Type: cell-based
# condition_parameters: Homo sapiens, Jurkat, apoptosis using Fas antibody, WST-1
pIC50: −log10 of the molar value.
reported_property: pIC50

Can you look up the measured pIC50 of CC(C)[C@@]1(C(=O)NC(CC(=O)O)C(=O)CF)CC(c2cccc(C(C)(C)C)c2)=NO1 (some centres unmarked) for me?
6.52

A = CCC1(C(=O)N[C@@H](CC(=O)O)C(=O)COc2c(F)c(F)cc(F)c2F)CC(Cc2cccc3ccccc23)=NO1 (some centres unmarked)
B = CCC1(C(=O)N[C@@H](CC(=O)O)C(=O)COc2c(F)c(F)cc(F)c2F)CC(c2ccc3ccccc3c2)=NO1 (some centres unmarked)
C = CCC1(C(=O)NC(CC(=O)O)C(=O)CF)CC(c2ccc(C(C)(C)C)cc2)=NO1 (centres unmarked)
hey, can you rank those compounds up there by pIC50? biggest number first please Use the labels to give the requested order.
C, A, B
(C: 5.58, A: 5.19, B: 4.49)

A = CC(C)[C@@]1(C(=O)NC(CC(=O)O)C(=O)CF)CC(c2cc(C(C)(C)C)ccn2)=NO1 (some centres unmarked)
B = CCC1(C(=O)N[C@@H](CC(=O)O)C(=O)COc2c(F)c(F)cc(F)c2F)CC(c2cccc3ccccc23)=NO1 (some centres unmarked)
Field: lower pIC50 | Options: A / B // respond with label for picked entry
B
(B: 5.37, A: 5.91)

I = CCC1(C(=O)NC(CC(=O)O)C(=O)CF)CC(c2cc(C3CCCC3)ccn2)=NO1 (centres unmarked)
II = CCC1(C(=O)NC(CC(=O)O)C(=O)CF)CC(c2c(C)c3ccccc3n2C)=NO1 (centres unmarked)
III = CCC1(C(=O)NC(CC(=O)O)C(=O)CF)CC(c2nccc3c2CCCC3)=NO1 (centres unmarked)
IV = CCC1(C(=O)N[C@@H](CC(=O)O)C(=O)COc2c(F)c(F)cc(F)c2F)CC(c2nccc3ccccc23)=NO1 (some centres unmarked)
V = CCC1(C(=O)NC(CC(=O)O)C(=O)CF)CC(c2cccc3cccnc23)=NO1 (centres unmarked)
Arrange the 5 compounds from largest to smallest pIC50. Quick reminder: the answer is the labels in the order asked.
I, III, IV, II, V
(I: 6.46, III: 6.14, IV: 5.92, II: 5.70, V: 4.58)

A = CC[C@]1(C(=O)NC(CC(=O)O)C(=O)CF)CC(c2cc3ccccc3cn2)=NO1 (some centres unmarked)
B = CCC1(C(=O)N[C@@H](CC(=O)O)C(=O)COc2c(F)c(F)cc(F)c2F)CC(c2c(C)c3ccccc3n2C)=NO1 (some centres unmarked)
In terms of reported pIC50, does A or B have the smaller number? I would appreciate it if you answered with the label of your choice.
B
